systemUnderTest: CAT
assayName: competition
endpointLabel: pKi
// field semantics: pKi = negative decimal log of concentration (mol/L)

Lookup: Which pKi value is on record for NHERF-2 PDZ2 (N2P2) PDZ2, Q15599 (protein) LRPRLCHLRKGPQGYGFNLHSDKSRPGQYIRSVDPGSPAARSGLRAQDRLIEVNGQNVEGLRHAEVVASIKAREDEARLLVVDPETD ?
Found: 3.60

Data origin: paper PMC4970318
